Value source: patent EP4631938A1

# experimental system: human recombinant 5-HT2C receptor (Homo sapiens, UniProt P28335)
# Construct: expressed in transfected cells; host or cells: Jump-In HEK cells (membrane preparation)
# Sequence (P28335 33-458): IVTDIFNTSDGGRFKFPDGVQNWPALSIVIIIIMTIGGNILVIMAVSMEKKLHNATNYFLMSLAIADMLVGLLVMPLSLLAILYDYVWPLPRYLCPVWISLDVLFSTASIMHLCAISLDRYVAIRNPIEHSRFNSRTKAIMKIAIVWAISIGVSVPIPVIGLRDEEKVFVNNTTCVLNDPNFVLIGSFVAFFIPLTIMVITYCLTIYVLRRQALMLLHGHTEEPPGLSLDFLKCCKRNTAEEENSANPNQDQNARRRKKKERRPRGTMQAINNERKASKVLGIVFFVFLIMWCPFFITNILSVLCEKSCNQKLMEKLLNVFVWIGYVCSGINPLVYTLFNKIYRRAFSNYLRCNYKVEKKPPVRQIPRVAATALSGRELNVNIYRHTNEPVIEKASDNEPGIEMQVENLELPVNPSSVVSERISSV
# experiment summary: Test Example 2-2: 5-HT2C receptor binding inhibition test ([3H]-Mesulergine; non-specific ligand Ketanserin)
# condition description: non-specific binding with 500 µmol/L Ketanserin, 37°C, 2 hours
pKi: −log10 of the molar value.
measured metric: pKi

I = Cn1ncc(Br)c1-c1cc(Nc2ncc(C(F)(F)F)cn2)cnc1OCCO [Compound I-131]
II = Cn1ncc(Br)c1-c1cc(Nc2ccc(C(F)F)cn2)ccc1OCCO [Compound I-091]
III = Cn1ncc(Br)c1-c1cc(Nc2ccc(CC(F)(F)F)cn2)ccc1OCCO [Compound I-094]
IV = Cc1cnc(Nc2ccc(OCCO)c(-c3c(Br)cnn3C)c2)s1 [Compound I-028]
Exam item: Please give the order of these compounds when sorted by pKi, largest value leading. Reply with the item labels sorted in the order that was asked for.
Marked response: III, I, IV, II
(III: 9.69, I: 8.90, IV: 8.30, II: 8.05)
